pIC50: −log10 of the molar value.
Hi, quick share: literature pIC50 data for UniProt:Q02156, several sources combined.

In the examples that follow, each entry is paired with its recorded pIC50.
- Molecule: "Nc1nccnc1C(=O)Nc1cc(C(=O)C2CC2)ccc1N1CCCC(N)C1 (centres unmarked)"
  pIC50: "5.00 to 6.00"
- Molecule: "Nc1ncc(-c2ccccc2)nc1C(=O)Nc1[nH]c(=O)ncc1N1CCCCC1"
  pIC50: "5.00 to 6.00"
- Molecule: "CN1C(C)(C)CC(Nc2nc(Nc3ccc4c(c3)oc(=O)n4CC3CC3)ncc2F)CC1(C)C"
  pIC50: 6.85
- Molecule: "CS(=O)(=O)c1cccc(-c2ccc(N)c(C(=O)Nc3cnccc3N3CCC[C@H](N)C3)n2)c1"
  pIC50: "4.60 to 5.00"
- Molecule: "CN1C(C)(C)CC(Nc2nc(Nc3ccc4c(c3)-n3nnnc3C(F)(F)O4)ncc2F)CC1(C)C"
  pIC50: "> 6.60"
- Molecule: "CN1C(C)(C)CC(Nc2nc(Nc3ccc(C#N)c(C#N)c3)ncc2F)CC1(C)C"
  pIC50: 6.60
- Molecule: "CN1C(C)(C)CC(Nc2nc(Nc3ccc4c(c3)-n3nnnc3C3(CCC3)O4)ncc2F)CC1(C)C"
  pIC50: "> 6.60"

Q: Give pIC50; test system UniProt:Q02156; molecule Nc1ncc(-c2ccccc2F)nc1C(=O)Nc1ccccc1N1CCC(N)CC1
A: > 6.00
